// data source = paper PMC4890880

Quick reference for cytotoxicity at 50 µM among some compounds
- Tested on: HepG2-A16-CD81EGFP cells
- TEST METHOD NOTES: cells
- MEASUREMENT SETUP: Homo sapiens, HepG2, read-out: HepG2 Tox% @ 50 uM rep1
VALUE KIND: cytotoxicity at 50 µM (%)

CCOc1cc(Cl)c(C(C)NC(=O)c2ccccc2)cc1OCC (stereo not shown) | 49
Oc1c2c(nc3ccccc13)CCCC2 | -7.59
Brc1ccc(Nc2nc3ccccc3nc2Nc2ccc(Br)cc2)cc1 | 100
CCOc1ccccc1CN1CCc2nc3cc(C(C)(C)C)nn3c(O)c2C1 | 0.78
COc1ccccc1CNC(=O)CCn1c(=O)[nH]c2ccsc2c1=O | -14
Cc1ccc(Cl)cc1N1CCN(CCCNC(=O)C2CCN(c3nc4ccccc4[nH]3)CC2)CC1 | 100
Cc1ccc(C)c(-c2csc(Nc3ccc(C)c(C)c3)n2)c1 | -26
O=C(NC1CCN(Cc2ccccc2)CC1)c1cc(-c2cccnc2)nc2ccc(Cl)cc12 | 0.383
CC(C)(C)c1ccc(C(=O)Nc2nc3ccccc3s2)cc1 | 89
O=C(Nc1ccc(-c2nc3cc4ccccc4cc3[nH]2)cc1)c1cccc(Br)c1 | 41
Cc1cc(N(C)C)nc(Nc2ccc(NC(=O)Nc3ccccc3)cc2)n1 | 96
CCN(CC)CCNc1ccnc2cc(Cl)ccc12 | 53
CC(C)(C)c1ccc(C2CC3=Nc4ccccc4N(C(=O)c4ccccc4Cl)C(c4ccc(F)cc4)C3=C(O)C2)cc1 (stereo not shown) | 1.44
O=C(Nc1ccc(N2CCN(Cc3ccccc3)CC2)cc1)c1cccs1 | -7.52
CC(=O)NCCc1nc2ccccc2n1Cc1ccc(C(C)C)cc1 | 81
C=C(C)CCC(C)N1CCC(N2CCC(C(=O)NCCc3ccccc3)CC2)CC1 (stereo not shown) | 91
O=C(NC1CCN(Cc2ccccc2)CC1)c1cc(C(=O)NC2CCN(Cc3ccccc3)CC2)cc(C(=O)NC2CCN(Cc3ccccc3)CC2)c1 | 101
c1ccc2c(NCCCCCCNc3c4c(nc5ccccc35)CCCC4)c3c(nc2c1)CCCC3 | 100
CCCc1c(C)nc2ccccc2c1O | 0.331
